# Test system: P. acnes ATCC 11827
parameter: MIC

Previously resolved entries follow.
Input: # get_value(readout= MIC, system= P. acnes ATCC 11827) for CCONCc1ccc(O)c2c1C[C@H]1C[C@H]3[C@H](N(C)C)C(O)=C(C(N)=O)C(=O)[C@@]3(O)C(O)=C1C2=O
Output: < 4 µg/mL

Input: Similarly, C/C(=N\OC(C)(C)C)c1cc(N)c(O)c2c1C[C@H]1C[C@H]3[C@@H](N(C)C)C(O)=C(C(N)=O)C(=O)[C@@]3(O)C(O)=C1C2=O ?
Output: < 4 µg/mL

Input: Similarly, CN(C)[C@@H]1C(O)=C(C(N)=O)C(=O)[C@@]2(O)C(O)=C3C(=O)c4c(O)ccc(/C=N/NC(C)(C)C)c4C[C@H]3C[C@@H]12 ?
Output: < 4 µg/mL

Next:
Input: # get_value(readout= MIC, system= P. acnes ATCC 11827) for CN(C)[C@@H]1C(O)=C(C(N)=O)C(=O)[C@@]2(O)C(O)=C3C(=O)c4c(O)ccc(CNOCC(F)F)c4C[C@H]3C[C@@H]12
Output: < 4 µg/mL

Input: Similarly, CC1CCN(Cc2cccc3c2C[C@H]2C[C@H]4[C@@H](N(C)C)C(O)=C(C(N)=O)C(=O)[C@@]4(O)C(O)=C2C3=O)CC1 ?
Output: 4 to 8 µg/mL

Input: Similarly, CON(C)Cc1ccc(O)c2c1C[C@H]1C[C@H]3[C@@H](N(C)C)C(O)=C(C(N)=O)C(=O)[C@@]3(O)C(O)=C1C2=O ?
Output: < 4 µg/mL
